target: Tyrosine-protein kinase ZAP-70 (Homo sapiens); assay: Binding affinity to recombinant full-length N-terminal His-FLAG-GST-tagged ZAP70 (unknown origin) expressed in baculovirus infected Sf9 insect cells incubated for 1 hr by TR-FRET assay
Sequence (P43403 whole entry): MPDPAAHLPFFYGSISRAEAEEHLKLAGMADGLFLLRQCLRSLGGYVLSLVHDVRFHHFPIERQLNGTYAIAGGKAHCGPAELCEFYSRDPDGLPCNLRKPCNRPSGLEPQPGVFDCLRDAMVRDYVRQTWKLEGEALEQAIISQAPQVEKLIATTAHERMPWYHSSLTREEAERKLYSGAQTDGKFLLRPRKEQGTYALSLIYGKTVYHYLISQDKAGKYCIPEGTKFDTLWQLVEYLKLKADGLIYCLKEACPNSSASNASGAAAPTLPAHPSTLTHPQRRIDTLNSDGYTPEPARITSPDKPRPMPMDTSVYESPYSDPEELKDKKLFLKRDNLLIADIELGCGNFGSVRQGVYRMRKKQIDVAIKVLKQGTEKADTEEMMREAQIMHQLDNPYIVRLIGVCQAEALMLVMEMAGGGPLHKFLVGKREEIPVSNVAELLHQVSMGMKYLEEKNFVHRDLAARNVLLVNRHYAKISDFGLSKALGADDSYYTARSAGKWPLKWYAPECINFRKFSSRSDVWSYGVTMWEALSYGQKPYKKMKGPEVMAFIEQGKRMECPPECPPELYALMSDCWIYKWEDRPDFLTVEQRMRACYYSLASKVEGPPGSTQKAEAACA
measure name: pKd
Entry type: numeric. Quantity: pKd, the -log10 of concentration in molar units.

Ask: Which pKd value belongs to CO[C@@H]1[C@H](NCCOCCOCCOCCNC(=O)CCC2=[N+]3C(=Cc4c(C)cc(C)n4[B-]3(F)F)C=C2)C[C@H]2O[C@]1(C)n1c3ccccc3c3c4c(c5c6ccccc6n2c5c31)C(=O)NC4 ?
Reply: 6.96

---

molecular target: Tyrosine-protein kinase Lck (Homo sapiens, UniProt P06239); experiment: Binding affinity to recombinant human full length N-terminal GST-tagged LCK expressed in baculovirus expression system using srctide as substrate incubated for 1 hr by TR-FRET assay
Sequence (P06239 whole entry): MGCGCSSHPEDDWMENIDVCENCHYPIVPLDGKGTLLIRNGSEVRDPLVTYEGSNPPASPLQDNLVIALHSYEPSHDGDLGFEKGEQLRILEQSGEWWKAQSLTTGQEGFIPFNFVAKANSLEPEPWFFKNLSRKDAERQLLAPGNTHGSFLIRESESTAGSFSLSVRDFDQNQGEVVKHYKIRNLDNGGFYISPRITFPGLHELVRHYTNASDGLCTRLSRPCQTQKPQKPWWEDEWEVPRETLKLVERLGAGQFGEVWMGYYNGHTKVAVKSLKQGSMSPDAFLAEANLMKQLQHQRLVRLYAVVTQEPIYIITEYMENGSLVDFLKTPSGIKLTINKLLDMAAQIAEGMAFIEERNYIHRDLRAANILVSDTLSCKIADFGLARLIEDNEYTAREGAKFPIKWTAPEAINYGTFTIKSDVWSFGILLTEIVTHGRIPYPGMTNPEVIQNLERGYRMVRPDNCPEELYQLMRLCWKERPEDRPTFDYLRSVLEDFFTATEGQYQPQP
measure name: Kd (nM)
Respond numerically; units are nM and should not be typed.

Ask: Which Kd value belongs to CO[C@@H]1[C@H](NCCOCCOCCOCCNC(=O)CCC2=[N+]3C(=Cc4c(C)cc(C)n4[B-]3(F)F)C=C2)C[C@H]2O[C@]1(C)n1c3ccccc3c3c4c(c5c6ccccc6n2c5c31)C(=O)NC4 ?
Reply: 94

Ask: Also need CO[C@@H]1[C@H](N(C)CCOCCOCCOCCNC(=O)CCC2=[N+]3C(=Cc4c(C)cc(C)n4[B-]3(F)F)C=C2)C[C@H]2O[C@]1(C)n1c3ccccc3c3c4c(c5c6ccccc6n2c5c31)C(=O)NC4 , thanks.
Reply: 92

---

target: Dual specificity tyrosine-phosphorylation-regulated kinase 1A (Homo sapiens, UniProt Q13627); test: Binding affinity to recombinant full-length N-terminal His-FLAG-GST-tagged DYRK1A (unknown origin) expressed in baculovirus infected Sf9 insect cells incubated for 1 hr by TR-FRET assay
measure name: Kd (nM)
Respond numerically; units are nM and should not be typed.

Ask: Which Kd value belongs to CO[C@@H]1[C@H](NCCOCCOCCOCCNC(=O)CCC2=[N+]3C(=Cc4c(C)cc(C)n4[B-]3(F)F)C=C2)C[C@H]2O[C@]1(C)n1c3ccccc3c3c4c(c5c6ccccc6n2c5c31)C(=O)NC4 ?
Reply: 138

Ask: Also need CO[C@@H]1[C@H](N(C)CCOCCOCCOCCNC(=O)CCC2=[N+]3C(=Cc4c(C)cc(C)n4[B-]3(F)F)C=C2)C[C@H]2O[C@]1(C)n1c3ccccc3c3c4c(c5c6ccccc6n2c5c31)C(=O)NC4 , thanks.
Reply: 102

---

Give Kd for every item shown.
molecular target: Glycogen synthase kinase-3 beta (Homo sapiens, UniProt P49841); test: Binding affinity to recombinant full-length N-terminal His-FLAG-GST-tagged GSK3B (unknown origin) expressed in baculovirus infected Sf9 insect cells incubated for 1 hr by TR-FRET assay
Sequence (P49841 whole entry): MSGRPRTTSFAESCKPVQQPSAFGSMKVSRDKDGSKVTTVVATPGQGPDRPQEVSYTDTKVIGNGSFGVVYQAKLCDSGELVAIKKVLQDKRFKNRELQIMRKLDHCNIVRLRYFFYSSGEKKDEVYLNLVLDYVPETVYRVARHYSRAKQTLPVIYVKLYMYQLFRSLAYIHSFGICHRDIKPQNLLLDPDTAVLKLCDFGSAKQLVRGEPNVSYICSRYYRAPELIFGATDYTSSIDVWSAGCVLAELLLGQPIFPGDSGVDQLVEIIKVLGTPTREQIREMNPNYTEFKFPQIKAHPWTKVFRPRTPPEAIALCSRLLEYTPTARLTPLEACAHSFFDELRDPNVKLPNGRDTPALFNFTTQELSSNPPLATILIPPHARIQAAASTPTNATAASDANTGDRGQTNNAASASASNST
Reply with a number, then the unit it belongs to.

Ask: Which Kd value belongs to CO[C@@H]1[C@H](N(C)CCOCCOCCOCCNC(=O)CCC2=[N+]3C(=Cc4c(C)cc(C)n4[B-]3(F)F)C=C2)C[C@H]2O[C@]1(C)n1c3ccccc3c3c4c(c5c6ccccc6n2c5c31)C(=O)NC4 ?
Reply: 148 nM

Ask: Also need CO[C@@H]1[C@H](NCCOCCOCCOCCNC(=O)CCC2=[N+]3C(=Cc4c(C)cc(C)n4[B-]3(F)F)C=C2)C[C@H]2O[C@]1(C)n1c3ccccc3c3c4c(c5c6ccccc6n2c5c31)C(=O)NC4 , thanks.
Reply: 230 nM
